Can you tell me IC50 for the items I'm about to list?
- Test system: BT-474
- Test details: Antiproliferative activity against human BT474 cells by methylene blue staining method
Answers are plain numbers, in nM.

Field: IC50. Fill in for each record below.
1. CCN1CCN(CCCC#Cc2c(C)ncnc2Nc2ccc(OCc3cccc(F)c3)c(Cl)c2)CC1
2. CS(=O)(=O)CCNCc1ccc(-c2ccc3ncnc(Nc4ccc(OCc5cccc(F)c5)c(Cl)c4)c3c2)o1.Cc1ccc(S(=O)(=O)O)cc1.Cc1ccc(S(=O)(=O)O)cc1.O [LAPATINIB DITOSYLATE]
3. Cc1ncnc(Nc2ccc(OCc3cccc(F)c3)c(Cl)c2)c1C#Cc1ccc(CN2CCOCC2)cc1

// result
1440
100
394

Field: IC50. Fill in for each record below.
1. Cc1ncnc(Nc2ccc(OCc3cccc(F)c3)c(Cl)c2)c1/C=C(\F)C(=O)NCCN1CCCC1
2. Cc1ncnc(Nc2ccc(OCc3cccc(F)c3)c(Cl)c2)c1/C=C/c1ccc(CN2CCOCC2)cc1

// result
1: 1130; 2: 644

====

- Measured on: Epidermal growth factor receptor (Homo sapiens)
- Sequence (P00533 whole entry): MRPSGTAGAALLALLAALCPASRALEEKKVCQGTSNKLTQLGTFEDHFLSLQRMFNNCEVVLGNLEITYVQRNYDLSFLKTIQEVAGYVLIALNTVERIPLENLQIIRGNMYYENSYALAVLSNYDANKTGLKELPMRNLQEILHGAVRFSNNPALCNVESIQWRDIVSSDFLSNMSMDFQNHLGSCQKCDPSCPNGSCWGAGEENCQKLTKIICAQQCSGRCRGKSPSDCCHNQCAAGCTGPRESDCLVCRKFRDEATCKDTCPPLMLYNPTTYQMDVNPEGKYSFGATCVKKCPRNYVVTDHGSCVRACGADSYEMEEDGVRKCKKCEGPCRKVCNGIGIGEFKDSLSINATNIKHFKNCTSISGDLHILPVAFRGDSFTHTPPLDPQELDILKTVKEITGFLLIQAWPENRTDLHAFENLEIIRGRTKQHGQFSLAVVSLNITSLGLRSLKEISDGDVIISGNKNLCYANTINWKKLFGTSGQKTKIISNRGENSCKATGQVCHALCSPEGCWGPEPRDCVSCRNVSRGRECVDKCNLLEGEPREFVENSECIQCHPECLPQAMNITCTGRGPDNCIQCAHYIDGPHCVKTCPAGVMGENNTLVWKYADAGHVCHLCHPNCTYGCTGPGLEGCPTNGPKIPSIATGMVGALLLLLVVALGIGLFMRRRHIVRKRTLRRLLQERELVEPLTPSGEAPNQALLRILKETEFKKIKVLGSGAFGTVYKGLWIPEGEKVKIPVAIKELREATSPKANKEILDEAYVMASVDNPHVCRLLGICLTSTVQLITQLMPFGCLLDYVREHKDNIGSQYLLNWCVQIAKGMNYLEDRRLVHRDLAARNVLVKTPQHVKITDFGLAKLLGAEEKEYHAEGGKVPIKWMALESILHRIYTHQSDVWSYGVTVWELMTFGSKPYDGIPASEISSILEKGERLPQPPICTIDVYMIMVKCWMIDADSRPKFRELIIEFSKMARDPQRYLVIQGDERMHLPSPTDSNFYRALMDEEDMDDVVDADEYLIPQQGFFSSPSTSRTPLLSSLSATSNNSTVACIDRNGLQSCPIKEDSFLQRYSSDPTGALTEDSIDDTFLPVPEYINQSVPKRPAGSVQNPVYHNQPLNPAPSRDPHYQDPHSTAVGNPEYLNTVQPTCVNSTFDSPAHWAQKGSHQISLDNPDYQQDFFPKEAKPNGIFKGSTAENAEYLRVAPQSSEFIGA
pIC50: −log10 of the molar value.
# label = class 1 if pIC50 >= 7 else class 0

mol_smiles=Cc1ncnc(Nc2ccc(OCc3cccc(F)c3)c(Cl)c2)c1-c1cccc(CN2CCOCC2)c1 category="class 0"
mol_smiles=CCN1CCN(CCCC#Cc2c(C)ncnc2Nc2ccc(OCc3cccc(F)c3)c(Cl)c2)CC1 category="class 1"
mol_smiles=Cc1cc(Nc2ccc(OCc3cccc(F)c3)c(Cl)c2)ncn1 category="class 0"
mol_smiles=Fc1cccc(COc2ccc(Nc3ccncn3)cc2Cl)c1 category="class 0"
mol_smiles=Cc1ncnc(Nc2ccc(OCc3cccc(F)c3)c(Cl)c2)c1C#Cc1ccc(CN2CCOCC2)cc1 category="class 0"

// query Test whether the molecule Cc1ncnc(Nc2ccc(OCc3cccc(F)c3)c(Cl)c2)c1C#CCCCN1CCOCC1 records pIC50 of 7 or higher.
// result class 1

// query Test whether the molecule Cc1ncnc(Nc2ccc(OCc3cccc(F)c3)c(Cl)c2)c1/C=C(\F)C(=O)NCCS(C)(=O)=O records pIC50 of 7 or higher.
// result class 1

// query Test whether the molecule Fc1cccc(COc2ccc(Nc3cc(-c4ccccc4)ncn3)cc2Cl)c1 records pIC50 of 7 or higher.
// result class 0

// query Test whether the molecule Cc1ncnc(Nc2ccc(OCc3cccc(F)c3)c(Cl)c2)c1C#CCCNCc1ccccc1 records pIC50 of 7 or higher.
// result class 0

// query Test whether the molecule C/C(=C\c1c(C)ncnc1Nc1ccc(OCc2cccc(F)c2)c(Cl)c1)C(=O)NCCN1CCOCC1 records pIC50 of 7 or higher.
// result class 1

====

- Measured on: Receptor tyrosine-protein kinase erbB-2 (Homo sapiens)
- Sequence (P04626 whole entry): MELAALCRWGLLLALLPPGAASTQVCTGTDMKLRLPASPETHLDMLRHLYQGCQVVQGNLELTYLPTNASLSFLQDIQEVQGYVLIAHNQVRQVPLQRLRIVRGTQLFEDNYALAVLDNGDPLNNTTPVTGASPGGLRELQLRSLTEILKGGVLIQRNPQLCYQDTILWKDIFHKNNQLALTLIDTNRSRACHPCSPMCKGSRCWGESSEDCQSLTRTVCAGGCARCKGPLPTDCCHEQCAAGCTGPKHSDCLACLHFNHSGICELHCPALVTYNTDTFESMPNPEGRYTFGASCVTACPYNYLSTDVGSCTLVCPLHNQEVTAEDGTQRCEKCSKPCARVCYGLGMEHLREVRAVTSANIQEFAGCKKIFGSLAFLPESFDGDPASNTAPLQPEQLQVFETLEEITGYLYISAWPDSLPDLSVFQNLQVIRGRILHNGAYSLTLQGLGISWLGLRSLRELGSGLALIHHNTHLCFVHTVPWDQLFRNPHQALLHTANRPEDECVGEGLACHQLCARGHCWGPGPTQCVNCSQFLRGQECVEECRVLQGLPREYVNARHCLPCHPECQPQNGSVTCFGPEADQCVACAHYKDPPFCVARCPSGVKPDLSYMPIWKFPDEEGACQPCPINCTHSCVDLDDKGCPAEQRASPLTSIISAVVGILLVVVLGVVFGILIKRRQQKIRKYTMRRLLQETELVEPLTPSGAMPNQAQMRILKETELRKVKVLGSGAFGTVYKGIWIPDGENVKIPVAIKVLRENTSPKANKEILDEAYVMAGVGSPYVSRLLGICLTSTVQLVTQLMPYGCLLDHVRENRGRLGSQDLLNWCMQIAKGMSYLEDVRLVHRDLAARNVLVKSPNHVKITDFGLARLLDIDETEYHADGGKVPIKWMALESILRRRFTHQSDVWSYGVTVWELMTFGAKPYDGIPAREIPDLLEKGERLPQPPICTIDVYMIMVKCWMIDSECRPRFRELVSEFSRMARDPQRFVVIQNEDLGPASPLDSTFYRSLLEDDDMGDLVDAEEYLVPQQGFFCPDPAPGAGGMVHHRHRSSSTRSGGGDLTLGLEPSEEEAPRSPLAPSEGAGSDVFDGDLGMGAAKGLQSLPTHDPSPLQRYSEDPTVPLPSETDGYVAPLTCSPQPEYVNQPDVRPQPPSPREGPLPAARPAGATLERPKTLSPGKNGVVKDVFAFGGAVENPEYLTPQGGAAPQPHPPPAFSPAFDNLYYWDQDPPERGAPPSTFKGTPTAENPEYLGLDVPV
- Test details: Inhibition of HER2 by homogeneous time-resolved fluorescence assay
Can you tell me pIC50 for the items I'm about to list?
Answers are plain numbers, as −log10 of the molar value.

Sample answers from the record:
mol_smiles=Cc1ncnc(Nc2ccc(OCc3cccc(F)c3)c(Cl)c2)c1/C=C(\F)C(=O)NCCS(C)(=O)=O reported=7.15
mol_smiles=CCN1CCN(C(=O)/C(F)=C/c2c(C)ncnc2Nc2ccc(OCc3cccc(F)c3)c(Cl)c2)CC1 reported=6.99
mol_smiles=Cc1ncnc(Nc2ccc(OCc3cccc(F)c3)c(Cl)c2)c1C#CCCCN1CCCC1 reported=7.02
mol_smiles=Cc1ncnc(Nc2ccc(OCc3cccc(F)c3)c(Cl)c2)c1C reported=6.85
mol_smiles=CCN1CCN(CCCC#Cc2c(C)ncnc2Nc2ccc(OCc3cccc(F)c3)c(Cl)c2)CC1 reported=7.44
mol_smiles=Cc1ncnc(Nc2ccc(OCc3cccc(F)c3)c(Cl)c2)c1/C=N/OCCCN1CCOCC1 reported=5.74
mol_smiles=Cc1ncnc(Nc2ccc(OCc3cccc(F)c3)c(Cl)c2)c1C#CCCCN1CCOCC1 reported=6.82
mol_smiles=Cc1ncnc(Nc2ccc(OCc3cccc(F)c3)c(Cl)c2)c1C#C/C=N/OCCN1CCOCC1 reported=7.15

Field: pIC50. Fill in for each record below.
1. Fc1cccc(COc2ccc(Nc3cc(-c4ccsc4)ncn3)cc2Cl)c1
2. CCc1ncnc(Nc2ccc(OCc3cccc(F)c3)c(Cl)c2)c1C

// result
1: 4.44; 2: 5.54

Taken from ChEMBL document CHEMBL1681756.
